test system: HOP-62 NSCLC; experiment: NCI tumour cell line growth inhibition, 48 h; in the data active = GI50 below about 0.43 µM; inactive = the rest
Could you please pick one outcome from this set? active, inactive

Illustrative cases are given below, each with its answer.
| compound | target.or.system | group |
| --- | --- | --- |
| CCCCC/C=C/C/C=C/CCCCCCCC1=NC(C)(C)CN1C(C)C | HOP-62 NSCLC | inactive |
| Cn1cc(C2=C(c3cn(CCCN=C(N)N)c4ccccc34)C(=O)NC2=O)c2ccccc21 | HOP-62 NSCLC | inactive |
| C[C@]12CC[C@@H]3c4ccc(Oc5nc(N6CC6)nc(N6CC6)n5)cc4CC[C@H]3[C@@H]1CCC2=O | HOP-62 NSCLC | inactive |
| COc1cccc(N=Cc2c3ccccc3c(=O)n3c2oc2ccccc23)c1 | HOP-62 NSCLC | inactive |
| COc1cc2c3c(n(CCCCl)c(=O)c2cc1OC)-c1ccccc1C3=O | HOP-62 NSCLC | inactive |

Here is another compound to look at.
Ask | // outcome(item) with item = COc1cc([C@@H]2c3cc4c(cc3C(O[C@@H]3O[C@@H]5CO[C@@H](c6cccs6)OC5[C@H](O)[C@H]3O)C3COC(=O)[C@@H]32)OCO4)cc(OC)c1O (some centres undefined)
Reply | active
